Catalogue of inhibition at 100 µM readings, one per entry.
- target_entity: human α-synuclein (Homo sapiens, UniProt P37840)
- Construct: the full-length gene for untagged human α-synuclein was inserted; made in house; host or cells: E. coli BL21(DE3), plasmid derived from pT7 or pET11a
- assay_text: Cell-free Thioflavin T assay of α-synuclein aggregation (αSyn ThT Assay)
- Format: biochemical
- study_conditions: αSyn 50 μM; compounds at 100 μM; class symbol; read-out: αSyn ThT Assay % Inhibition (activity range)

O=C(O)[C@H]1CS(=O)(=O)c2c(-c3cccc(C(F)(F)F)c3)c(Cc3cccc4ccccc34)cc(=O)n21 (single isomer, unassigned) [Compound 010b] :: 31 to 60%
CCCN1CC(C(=O)O)n2c(c(-c3cccc(C(F)(F)F)c3)c(Cc3cccc4ccccc34)c(NC3CCOCC3)c2=O)S1(=O)=O (stereo not shown) [Compound 127] :: > 60%

Test system human α-synuclein (Homo sapiens, UniProt P37840); read-out inhibition at 100 µM; what value for Cn1c(=O)c2c(ncn2CCCCCN2CC(C(=O)O)n3c(c(-c4cccc(C(F)(F)F)c4)c(Cc4cccc5ccccc45)cc3=O)S2(=O)=O)n(C)c1=O (stereo not shown) [Compound 034] ?
-10 to 10%

Please answer likewise for Nc1c(Cc2cccc3ccccc23)c(-c2cccc(C(F)(F)F)c2)c2n(c1=O)C(C(=O)O)CS2(=O)=O (stereo not shown) [Compound 023]
11 to 30%

Please answer likewise for C=CCCN1CC(C(=O)O)n2c(c(-c3cccc(C(F)(F)F)c3)c(Cc3cccc4ccccc34)cc2=O)S1(=O)=O (stereo not shown) [Compound 024]
> 60%

====

- target_entity: E. coli CsgA (Escherichia coli, UniProt P28307)
- Construct: made in house; host or cells: E. coli NEB 3016 slyD::kan, pET11d
- Sequence (P28307 23-151): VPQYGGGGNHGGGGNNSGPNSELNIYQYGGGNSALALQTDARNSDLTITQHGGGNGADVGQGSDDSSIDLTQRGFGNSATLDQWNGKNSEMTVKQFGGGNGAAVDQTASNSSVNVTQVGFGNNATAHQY
- assay_text: In vitro ThioflavinT assay of CsgA aggregation (CsgA ThT Assay)
- Assay type: biochemical
- study_conditions: read-out: CsgA ThT Assay (10 μM CsgA) % Control AUC at 1005 minutes, 100 μM (activity range), CsgA 10 μM, black plates; compound 100 μM; 1005 minutes; class symbol
Catalogue of remaining activity at 100 µM readings, one per entry.

Nc1c(Cc2ccc(N)c3ccccc23)c(-c2cccc(C(F)(F)F)c2)c2n(c1=O)C(C(=O)O)CNS2(=O)=O (stereo not drawn) [Compound 041] :: 11 to 31%
CNC(=O)CN1CC(C(=O)O)n2c(c(-c3cccc(C(F)(F)F)c3)c(Cc3cccc4ccccc34)cc2=O)S1(=O)=O (stereo not drawn) [Compound 049] :: 31 to 60%
Nc1c(Cc2cccc3ccccc23)c(-c2cccc(C(F)(F)F)c2)c2n(c1=O)C(C(=O)O)CO2 (stereo not drawn) [Compound 069] :: 11 to 31%
CCc1c(Cc2cccc3ccccc23)c(-c2cccc(C(F)(F)F)c2)c2n(c1=O)C(C(=O)O)CN(C)S2(=O)=O (stereo not drawn) [Compound 076] :: 11 to 31%
CCN1CC(C(=O)O)n2c(c(-c3cccc(C(F)(F)F)c3)c(Cc3cccc4ccccc34)c(N)c2=O)S1(=O)=O (stereo not drawn) [Compound 092] :: 31 to 60%
O=C(O)C1CN(CCCO)S(=O)(=O)c2c(-c3cccc(C(F)(F)F)c3)c(Cc3cccc4ccccc34)c(NC3CCCC3)c(=O)n21 (stereo not drawn) [Compound 120] :: 11 to 31%

Could you tell me which remaining activity at 100 µM is on file for Cn1c(=O)c2c(nc(CCCCCCCN3CC(C(=O)O)n4c(c(-c5cccc(C(F)(F)F)c5)c(Cc5cccc6ccccc56)cc4=O)S3(=O)=O)n2C)n(C)c1=O (stereo not drawn) [Compound 047] ?
> 60%

Please answer likewise for Nc1c(Cc2cccc3ccccc23)c(-c2cccc(C(F)(F)F)c2)c2n(c1=O)C(C(=O)O)CN(C[C@@H](O)CO)S2(=O)=O (stereo partly drawn) [Compound 096]
> 60%

Please answer likewise for CN(C)Cc1c(Cc2cccc3ccccc23)c(-c2cccc(C(F)(F)F)c2)c2n(c1=O)C(C(=O)O)CS2(=O)=O (stereo not drawn) [Compound 083]
> 60%

Please answer likewise for CN1CC(C(=O)O)n2c(c(-c3cccc(C(F)(F)F)c3)c(Cc3cccc4ccccc34)c(Br)c2=O)S1(=O)=O (stereo not drawn) [Compound 058]
11 to 31%

Please answer likewise for Nc1c(Cc2cccc3ccccc23)c(-c2cccc(C(F)(F)F)c2)c2n(c1=O)C(C(=O)O)CN(C[C@H](O)[C@@H](O)[C@H](O)[C@H](O)CO)S2(=O)=O (stereo partly drawn) [Compound 105]
> 60%

====

- target_entity: E. coli CsgA (Escherichia coli, UniProt P28307)
- Construct: made in house; host or cells: E. coli NEB 3016 slyD::kan, pET11d
- assay_text: In vitro ThioflavinT assay of CsgA aggregation (CsgA ThT Assay)
- Format: biochemical
- study_conditions: mean AUC as % of DMSO control; CsgA 10 μM, black plates; compound 100 μM; 1005 minutes
Threshold check on CsgA ThT Assay (10 μM CsgA) % Control AUC at 1005 minutes, 100 μM: strictly below 50% is class 1; on or above 50% is class 0.

Look over these answered cases.
CCCCN1CC(C(=O)O)n2c(c(-c3cccc(C(F)(F)F)c3)c(Cc3cccc4ccccc34)cc2=O)S1(=O)=O (single isomer, unassigned) [Compound 021a] :: class 0
O=C(O)C1CS(=O)(=O)c2c(-c3cccc(C(F)(F)F)c3)c(Cc3cccc4ccccc34)cc(=S)n21 (single isomer, unassigned) [Compound 014b] :: class 1
CCCCCN1CC(C(=O)O)n2c(c(-c3cccc(C(F)(F)F)c3)c(Cc3cccc4ccccc34)cc2=O)S1(=O)=O (single isomer, unassigned) [Compound 025a] :: class 0
CCCN1CC(C(=O)O)n2c(c(-c3cccc(C(F)(F)F)c3)c(Cc3cccc4ccccc34)cc2=O)S1(=O)=O (single isomer, unassigned) [Compound 016b] :: class 1

Turning to the following compound.
Does the reported CsgA ThT Assay (10 μM CsgA) % Control AUC at 1005 minutes, 100 μM of O=C(O)C1CSc2c(-c3cccc(C(F)(F)F)c3)c(Cc3cccc4ccccc34)cc(=O)n21 (single isomer, unassigned) [Compound 011b] stay below 50%?
class 0

====

- target_entity: human α-synuclein (Homo sapiens)
- Construct: the full-length gene for untagged human α-synuclein was inserted; made in house; host or cells: E. coli BL21(DE3), plasmid derived from pT7 or pET11a
- assay_text: Cell-free Thioflavin T assay of α-synuclein aggregation (αSyn ThT Assay)
- Type: biochemical
- study_conditions: mean percent inhibition relative to DMSO control; αSyn 50 μM, compounds 100 μM; read-out: αSyn ThT Assay % inhibition
property_label: inhibition at 100 µM (%)
Numeric answer only, unit % assumed.

As a guide, the following entries are already answered.
CN1CC(C(=O)O)n2c(c(-c3cccc(C(F)(F)F)c3)c(Cc3cccc4ccccc34)c(C(=O)NC(C)(C)C)c2=O)S1(=O)=O (centres unmarked) [Compound 158] :: 79
CCCN1CC(C(=O)O)n2c(c(-c3cccc(C(F)(F)F)c3)c(Cc3cccc4ccccc34)c(OC3CCCC3)c2=O)S1(=O)=O (centres unmarked) [Compound 144] :: 29
CCCCN1CC(C(=O)O)n2c1c(-c1cccc(C(F)(F)F)c1)c(Cc1cccc3ccccc13)c(Cl)c2=O (centres unmarked) [Compound 163] :: 47

Could you tell me which inhibition at 100 µM is on file for CCCN1CC(C(=O)O)n2c(c(-c3cccc(C(F)(F)F)c3)c(Cc3cccc4ccccc34)c(C(N)=O)c2=O)S1(=O)=O (centres unmarked) [Compound 172] ?
98

Please answer likewise for O=C(O)C1CN(Cc2ccccc2)c2c(-c3cccc(C(F)(F)F)c3)c(Cc3cccc4ccccc34)c(Br)c(=O)n21 (centres unmarked) [Compound 003]
76

Please answer likewise for CCCN1CC(C(=O)O)n2c(c(-c3cccc(C(F)(F)F)c3)c(Cc3cccc4ccccc34)c(Cl)c2=O)S1(=O)=O (centres unmarked) [Compound 142]
40

Please answer likewise for O=C(O)C1CN(Cc2cccc3ccccc23)c2c(-c3cccc(C(F)(F)F)c3)c(Cc3cccc4ccccc34)c(Cl)c(=O)n21 (centres unmarked) [Compound 200]
84

Please answer likewise for CC(C)CNC(=O)c1c(Cc2cccc3ccccc23)c(-c2cccc(C(F)(F)F)c2)c2n(c1=O)C(C(=O)O)CN(C)S2(=O)=O (centres unmarked) [Compound 159]
83

Please answer likewise for CCc1c(Cc2cccc3ccccc23)c(-c2cccc(C(F)(F)F)c2)c2n(c1=O)C(C(=O)O)CN2Cc1ccc(OC)cc1 (centres unmarked) [Compound 161]
44

Please answer likewise for N#Cc1cccc(CN2CC(C(=O)O)n3c2c(-c2cccc(C(F)(F)F)c2)c(Cc2cccc4ccccc24)c(Cl)c3=O)c1 (centres unmarked) [Compound 168]
43

Please answer likewise for O=C(O)C1CN(Cc2ccccc2)c2c(-c3cccc(C(F)(F)F)c3)c(Cc3ccc(Cl)c4ccccc34)cc(=O)n21 (centres unmarked) [Compound 232]
23

Please answer likewise for O=C(O)C1CN(CCc2cccc3ccccc23)c2c(-c3cccc(C(F)(F)F)c3)c(Cc3cccc4ccccc34)c(Cl)c(=O)n21 (centres unmarked) [Compound 238]
94

Please answer likewise for COc1cc(Cc2cc(=O)n3c(c2-c2cccc(C(F)(F)F)c2)N(Cc2ccccc2)CC3C(=O)O)c2ccccc2c1 (centres unmarked) [Compound 233]
50

Please answer likewise for O=C(O)[C@H]1CN(Cc2ccccc2)c2c(-c3cccc(C(F)(F)F)c3)c(Cc3cccc4ccccc34)c(Cl)c(=O)n21 (single isomer, unassigned) [Compound 004b]
44

Please answer likewise for O=C(O)C1CN(CC2CCCC2)c2c(-c3cccc(C(F)(F)F)c3)c(Cc3cccc4ccccc34)c(Cl)c(=O)n21 (centres unmarked) [Compound 167]
45

Please answer likewise for O=C(O)C1CN(Cc2ccccc2)c2c(-c3cccc(C(F)(F)F)c3)c(C(F)(F)c3cccc4ccccc34)c(Br)c(=O)n21 (centres unmarked) [Compound 155]
60

Please answer likewise for O=C(O)C1CN(CCCO)c2c(-c3cccc(C(F)(F)F)c3)c(Cc3cccc4ccccc34)c(Cl)c(=O)n21 (centres unmarked) [Compound 197]
39
